- test.method.notes: Cytotoxicity activity against human HepG2 cells assessed by CellTiter-Glo luminescent cell viability assay.
- Assay type: toxicity, cell-based
- Set-up: assay stage confirmatory assay, source tissue liver
- particulars: HepG2 cells, read-out: IC50 relative
Calls of active or inactive are those of the source. No rule for the calls is given here.
Pick one and only one: active, inactive

Could you check what this test reported for O=C(Nc1nc2cccc(-c3ccc(CN4CCS(=O)(=O)CC4)cc3)n2n1)C1CC1 ?
active

Could you check what this test reported for Cc1c(C(=O)c2cccc3ccccc23)c2cccc3c2n1[C@H](CN1CCOCC1)CO3 ?
active

Could you check what this test reported for Cc1ccccc1OCc1n(CC(=O)OC2CC(C)CCC2C(C)C)c2ccccc2[n+]1C (centres undefined) ?
active

Could you check what this test reported for N#Cc1cnc2c(Cl)cc(NCc3cn(CCN4CCCCCC4)nn3)cc2c1Nc1ccc(F)c(Cl)c1 ?
active

Could you check what this test reported for O=C(NCc1ccc(-n2ccnc2)nc1)c1ccnc(O[C@H]2CCOC2)c1 ?
active

Could you check what this test reported for Clc1cccc(N2CCN(C[C@H]3CCC4(CNC4)O3)CC2)c1 ?
active

Could you check what this test reported for O=C(CCCN1CCC(O)(c2ccc(Cl)cc2)CC1)c1ccc(F)cc1 ?
active

Could you check what this test reported for CCCc1cc(C)[nH]c(=O)c1CNC(=O)c1cc(-c2ccc(N3CCN(C)CC3)nc2)nc2c1cnn2C(C)C ?
active

Could you check what this test reported for CC(C)Oc1ccc(-c2c[nH]cc2CN(C)CCN)cc1 ?
inactive

====

- test.method.notes: Cytotoxicity activity against human HepG2 cells assessed by CellTiter-Glo luminescent cell viability assay.
- Type: toxicity, cell-based
- Set-up: assay stage confirmatory assay, source tissue liver
- particulars: HepG2 cells, read-out: IC50 relative
The source made the active and inactive calls. No rule for the calls is given here.
Pick one and only one: yes (1) (active), no (0) (inactive)

Could you check what this test reported for CC(C)c1cnc(NC(=O)N2CC[C@H](Nc3ccc4nccn4n3)C2)s1 ?
yes (1)

Could you check what this test reported for CCCCc1nc(-c2ccc(OCCCN(CC)CC)cc2)cn1-c1ccc(Oc2ccc(Cl)cc2)cc1 [AZELIRAGON] ?
yes (1)

Could you check what this test reported for O=C(CCN1CCN(C(=O)OCc2cc(Cl)cc(Cl)c2)CC1)c1ccc2[nH]c(=O)oc2c1 ?
no (0)

Could you check what this test reported for N#C/C(=C(/N)Sc1ccc(N)cc1)c1ccccc1C(F)(F)F ?
yes (1)

Could you check what this test reported for N#Cc1cc(NC[C@H](O)c2ccco2)nc2ccc(Cl)cc12 ?
yes (1)

Could you check what this test reported for COc1ccc([N+](=O)[O-])c(S(=O)(=O)c2ccc(Cl)cc2)n1 ?
yes (1)

Could you check what this test reported for C[C@@H]1CN(CC(=O)Nc2ccc3c(c2)Cc2cccc(-c4cc(=O)cc(N5CCOCC5)o4)c2S3)C[C@H](C)O1 ?
no (0)

Could you check what this test reported for O=S(=O)(NCCNC/C=C/c1ccc(Br)cc1)c1cccc2cnccc12 ?
yes (1)

Could you check what this test reported for CCOc1ccc(-n2ccnc(NCc3ccc(OC)c(OC)c3)c2=O)cc1 ?
yes (1)

Could you check what this test reported for CCOC(=O)[C@H](Cc1ccc([N+](=O)[O-])cc1)NC(=O)c1ccccc1 ?
yes (1)

====

- test.method.notes: Cytotoxicity activity against human HepG2 cells assessed by CellTiter-Glo luminescent cell viability assay.
- Type: toxicity, cell-based
- Parameters: assay stage confirmatory assay, source tissue liver
- particulars: HepG2 cells, read-out: IC50 relative
Calls of active or inactive are those of the source. The rule behind the calls is not given here.
Pick one and only one: active, inactive

Could you check what this test reported for O=C(NCc1ccc(-n2ccnc2)nc1)[C@@H]1CC(c2ccccc2)=NO1 ?
active

Could you check what this test reported for COc1ccc(CN(CC(=O)c2c(N)n(C)c(=O)n(C)c2=O)[C@@H](C)Cc2cccs2)cc1 ?
active

Could you check what this test reported for CCN1CCN(CCNC(=O)c2cn3ccnc(-c4ccc(C)cc4)c3n2)CC1 ?
inactive

Could you check what this test reported for CC(=O)N1c2ccc(S(=O)(=O)N3CCC(C(=O)N4CC=C(c5ccccc5)CC4)CC3)cc2CC1C (centres undefined) ?
active

Could you check what this test reported for CC(C)(C)C(=O)/C(=C/c1cccc([N+](=O)[O-])c1)n1cncn1 ?
active

Could you check what this test reported for CN(C)C/C=C/C(=O)Nc1ccc(C(=O)N2CCC[C@@H](Nc3ncc(Cl)c(-c4c[nH]c5ccccc45)n3)C2)cc1 ?
active

Could you check what this test reported for Nc1nc(Nc2ccc3c(c2)OCCO3)nc2ccccc12 ?
active

Could you check what this test reported for COC[C@H](C)Nc1cccc(N(C)C(C)C)c1 ?
active

Could you check what this test reported for COC1=C2C[C@@H](C)C[C@H](OC)[C@H](O)[C@@H](C)/C=C(/C)[C@H](OC(N)=O)[C@@H](OC)/C=C\C=C(\C)C(=O)NC(=CC1=O)C2=O ?
active
